molecular target: Plasminogen (Homo sapiens); experiment: Antiamidolytic Assay
Sequence (P00747 97-580 limits assumed): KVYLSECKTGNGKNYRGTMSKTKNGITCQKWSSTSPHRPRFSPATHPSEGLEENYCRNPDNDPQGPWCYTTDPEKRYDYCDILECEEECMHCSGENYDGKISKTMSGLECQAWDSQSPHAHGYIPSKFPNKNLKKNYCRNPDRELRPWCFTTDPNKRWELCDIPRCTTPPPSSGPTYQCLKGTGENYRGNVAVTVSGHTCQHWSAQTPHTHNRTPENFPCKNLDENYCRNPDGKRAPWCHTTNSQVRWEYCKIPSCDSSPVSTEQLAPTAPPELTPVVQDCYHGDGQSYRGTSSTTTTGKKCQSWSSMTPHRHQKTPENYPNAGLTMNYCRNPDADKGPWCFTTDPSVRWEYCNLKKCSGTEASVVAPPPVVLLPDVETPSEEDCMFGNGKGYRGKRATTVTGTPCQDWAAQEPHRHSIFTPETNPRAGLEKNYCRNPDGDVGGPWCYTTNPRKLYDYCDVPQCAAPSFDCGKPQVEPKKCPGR
Sequence (P00747 581-810 limits assumed): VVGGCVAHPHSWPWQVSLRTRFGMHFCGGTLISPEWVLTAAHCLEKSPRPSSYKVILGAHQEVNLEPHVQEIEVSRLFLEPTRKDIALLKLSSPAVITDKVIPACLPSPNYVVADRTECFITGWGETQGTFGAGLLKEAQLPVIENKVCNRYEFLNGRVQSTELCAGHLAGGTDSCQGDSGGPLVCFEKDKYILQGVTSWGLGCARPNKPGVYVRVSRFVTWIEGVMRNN

{"columns": ["compound", "study-system", "scale-unit", "qualifier-sign", "IC50"],
 "data": [
  ["Nc1cccc(C(=O)Nc2cccc(C(=O)NCCCCCNC(=O)c3cccc(NC(=O)c4cccc(N)c4)c3)c2)c1 [Carbocyclic minor groove binder, 6]", "Plasminogen (Homo sapiens)", "µM", "=", 10],
  ["Nc1cccc(C(=O)Nc2cccc(C(=O)NCCCNC(=O)c3cccc(NC(=O)c4cccc(N)c4)c3)c2)c1 [Carbocyclic minor groove binder, 4]", "Plasminogen (Homo sapiens)", "µM", "=", 20],
  ["Nc1cccc(C(=O)Nc2cccc(C(=O)NCCCCNC(=O)c3cccc(NC(=O)c4cccc(N)c4)c3)c2)c1 [Carbocyclic minor groove binder, 5]", "Plasminogen (Homo sapiens)", "µM", "=", 20],
  ["Cn1cc(NC(=O)c2cc(NC(=O)CN=C(N)N)cn2C)cc1C(=O)NCCC(=N)N", "Plasminogen (Homo sapiens)", "µM", "=", 40],
  ["N=C(N)c1ccc(OCCCCCOc2ccc(C(=N)N)cc2)cc1", "Plasminogen (Homo sapiens)", "µM", "<", 10]
]}
